# MEASURED_TARGET: Adenosine receptor A2a (Homo sapiens) (UniProt P29274)
# Sequence (P29274 whole entry): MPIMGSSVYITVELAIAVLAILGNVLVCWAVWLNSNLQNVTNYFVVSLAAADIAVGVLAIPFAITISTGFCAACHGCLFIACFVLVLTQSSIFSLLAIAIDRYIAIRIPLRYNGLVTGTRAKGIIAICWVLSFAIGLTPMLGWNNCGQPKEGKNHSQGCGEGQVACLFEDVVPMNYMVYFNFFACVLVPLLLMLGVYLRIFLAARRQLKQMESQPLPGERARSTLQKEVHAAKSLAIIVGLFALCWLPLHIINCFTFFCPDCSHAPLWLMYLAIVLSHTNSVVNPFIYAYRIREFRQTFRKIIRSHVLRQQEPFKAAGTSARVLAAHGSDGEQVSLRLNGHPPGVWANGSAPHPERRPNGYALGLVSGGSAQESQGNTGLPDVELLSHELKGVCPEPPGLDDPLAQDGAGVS
# ASSAY_NAME: Displacement of [3H]2-[p-(2-carboxyethyl)phenyl-ethylamino]-5'-N-ethylcarboxamido-adenosine from human adenosine A2A receptor expressed in HEK293 cell membranes at 10 uM incubated for 60 mins by liquid scintillation counting analysis
MEASURED_PROPERTY: inhibition (%)

Recorded results for 5 molecules are shown here.
CNC(=O)[C@@]12C[C@@H]1[C@@H](n1cnc3c(C)nc(C#Cc4ccc(C(C)(C)C)cc4)nc31)[C@H](O)[C@@H]2O 15
CNC(=O)[C@@]12C[C@@H]1[C@@H](n1cnc3c(C)nc(C#Cc4ccc(F)c(F)c4)nc31)[C@H](O)[C@@H]2O 14
CNC(=O)[C@@]12C[C@@H]1[C@@H](n1cnc3c(OC)nc(C#Cc4ccc(Cl)s4)nc31)[C@H](O)[C@@H]2O 27
CNC(=O)[C@@]12C[C@@H]1[C@@H](n1cnc3c(C)nc(C#Cc4cnccn4)nc31)[C@H](O)[C@@H]2O 17
CNC(=O)[C@@]12C[C@@H]1[C@@H](n1cnc3c(/C=C(\O)c4ccccc4Cl)nc(C#Cc4ccccc4Cl)nc31)[C@H](O)[C@@H]2O 21

[I] CNC(=O)[C@@]12C[C@@H]1[C@@H](n1cnc3c(/C=C(\O)c4ccccc4)nc(C#Cc4ccccc4)nc31)[C@H](O)[C@@H]2O
[II] CNC(=O)[C@@]12C[C@@H]1[C@@H](n1cnc3c(C)nc(C#Cc4ccccc4)nc31)[C@H](O)[C@@H]2O
Lower value of inhibition belongs to which: I or II ? // caller expects the label of the chosen entry
I
(I: 16%, II: 34%)

###

# MEASURED_TARGET: UniProtKB P30542
# Sequence (P30542 whole entry): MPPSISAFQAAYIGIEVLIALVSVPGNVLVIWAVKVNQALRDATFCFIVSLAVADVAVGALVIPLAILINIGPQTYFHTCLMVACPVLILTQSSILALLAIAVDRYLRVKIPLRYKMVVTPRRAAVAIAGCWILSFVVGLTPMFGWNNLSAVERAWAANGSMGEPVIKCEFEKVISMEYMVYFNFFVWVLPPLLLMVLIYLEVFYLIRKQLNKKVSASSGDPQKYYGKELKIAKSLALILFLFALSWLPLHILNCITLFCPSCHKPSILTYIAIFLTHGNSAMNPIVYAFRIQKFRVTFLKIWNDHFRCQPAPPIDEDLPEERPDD
# ASSAY_NAME: Displacement of [3H]N6-R-phenylisopropyladenosine from human adenosine A1 receptor expressed in CHO cell membranes at 10 uM incubated for 60 mins by liquid scintillation counting analysis
MEASURED_PROPERTY: inhibition (%)

CNC(=O)[C@@]12C[C@@H]1[C@@H](n1cnc3cnc(NC)nc31)[C@H](O)[C@@H]2O 17

[1] CNC(=O)[C@@]12C[C@@H]1[C@@H](n1cnc3c(C)nc(C#Cc4ccc(C(C)(C)C)cc4)nc31)[C@H](O)[C@@H]2O
[2] CNC(=O)[C@@]12C[C@@H]1[C@@H](n1cnc3c(/C=C(\O)c4ccccc4Cl)nc(C#Cc4ccccc4Cl)nc31)[C@H](O)[C@@H]2O
Between 1 and 2 , whose recorded inhibition is greater? Return value: the label identifying the chosen record.
2

###

# MEASURED_TARGET: Adenosine receptor A2a (Homo sapiens)
# ASSAY_NAME: Displacement of [3H]2-[p-(2-carboxyethyl)phenyl-ethylamino]-5'-N-ethylcarboxamido-adenosine from human adenosine A2A receptor expressed in HEK293 cell membranes at 10 uM incubated for 60 mins by liquid scintillation counting analysis
MEASURED_PROPERTY: inhibition (%)

CNC(=O)[C@@]12C[C@@H]1[C@@H](n1cnc3c(/C=C(\O)c4ccc(C(C)(C)C)cc4)nc(C#Cc4ccc(C(C)(C)C)cc4)nc31)[C@H](O)[C@@H]2O 19
CNC(=O)[C@@]12C[C@@H]1[C@@H](n1cnc3cnc(C#Cc4ccc(F)c(F)c4)nc31)[C@H](O)[C@@H]2O 12

[1] CNC(=O)[C@@]12C[C@@H]1[C@@H](n1cnc3cnc(/C=C(\O)c4cnccn4)nc31)[C@H](O)[C@@H]2O
[2] CNC(=O)[C@@]12C[C@@H]1[C@@H](n1cnc3c(C)nc(C#Cc4ccc(Cl)s4)nc31)[C@H](O)[C@@H]2O
For the pair 1 and 2 , which entry has the numerically smaller recorded inhibition? Answer by quoting the chosen item's label.
2
(2: 12%, 1: 20%)
